Target: T1, cynomolgus monkey IL-33 expressed with a C-terminal hexahistidine tag (cynomolgus monkey)
T1 construct: also called MfIL-33-6His; Mf-IL-33-6His
T1 chain: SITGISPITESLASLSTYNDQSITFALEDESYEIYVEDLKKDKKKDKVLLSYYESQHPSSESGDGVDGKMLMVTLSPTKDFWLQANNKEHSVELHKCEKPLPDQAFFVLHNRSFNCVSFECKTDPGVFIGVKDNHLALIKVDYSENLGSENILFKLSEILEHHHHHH
Experiment: SPR 37C pH7.4, mAb captured
Protocol: Equilibrium dissociation constants (KD values) for IL-33 binding to purified anti-IL-33 monoclonal antibodies were determined using a real-time surface plasmon resonance biosensor using a Biacore 4000 instrument. […] Association of either hIL-33 or MfIL-33-6His to the captured monoclonal antibody was monitored for 4 minutes and their dissociation in ABS-ET running buffer was monitored for 10 minutes. […]
RECORDED_METRIC: kon
Please provide the amount together with its unit, number first.

* H4H9659P (antibody, human IgG4, V domains shown, Human IgG4 Fc (H4H)) VH: QVQLVQSGAEVKKPGASVKVSCKASGYTFNSYGISWVRQAPGQGLEWMGWISSHNGNSHYVQKFQGRVSMTTDTSTSTAYMELRSLRSDDTAVYYCARHSYTTSWYGGFDYWGQGTLVTVSS VL: DIQMTQSPSSVSASVGDRVTITCRASQGFSSWLAWYQQKPGKAPQLLIYAASSLQSGVPSRFSGSGSGSDFTLTISSLQPEDFATYYCQQANSFPLTFGGGTKVEIK | 598000 M⁻¹ s⁻¹

// moving on: another record for kon
Please look up its kon: H1M9568N (antibody, mouse IgG1, V domains shown, Human variable domains, mouse IgG1 Fc (H1M)) VH: QVLLVQSGAEVKKPGATVKVSCKASGSTFTGYYMHWVRQAPGQGLEWMGWINPNNGGTNYAQKFQGRVTMTRDTSISTAYMELSRLRSDDTAVYYCARELRYNWKSWGQGTLVTVSS VL: EIVLTQSPGTLSLSPGERVTLSCRASQSVGRPYLAWYQQIPGQAPRLLIYGASSRATDIPDRFSGNGSGTDFTLTISRLEPEDFAVYYCQQYDNSPYTFGQGTRLEIK 389000 M⁻¹ s⁻¹

Just for reference, patent US20160362487A1 is where these values come from.
